- target.entity: C2BBe1 fixed cells
- protocol.description: competition ELISA on fixed cells; vs GST-PAX2
Ends that are not written are not given here. * marks the point of attachment. Dansyl = CN(C)c1cccc2c(S(=O)(=O)*)cccc12
parameter: IC50 (nM)
Entry rule: numbers only, all in nM.

Give me measured IC50, please, for this binder: K(Dansyl)SDHALGTNLRSDNAKEPGDYNCCGNGNSTGRKVFNRRRPSAIPT-NH2 (cysteine pairing not given here) [Z21(HAX42)] 700
